Entry source: patent US20180057604A1

molecular target: His-tagged BACE1 protein (Example 15) (Homo sapiens (Human), UniProt P56817 22-457); experiment: SPR (Biacore T200), Fab on captured His-BACE1;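 further: Single-cycle kinetics with serially diluted Fab flowed over BACE1 captured by anti-His antibody on a CM5 chip, rates fitted to a one-to-one Langmuir model, Kd derived as koff over kon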
Sequence (P56817 22-457 limits assumed): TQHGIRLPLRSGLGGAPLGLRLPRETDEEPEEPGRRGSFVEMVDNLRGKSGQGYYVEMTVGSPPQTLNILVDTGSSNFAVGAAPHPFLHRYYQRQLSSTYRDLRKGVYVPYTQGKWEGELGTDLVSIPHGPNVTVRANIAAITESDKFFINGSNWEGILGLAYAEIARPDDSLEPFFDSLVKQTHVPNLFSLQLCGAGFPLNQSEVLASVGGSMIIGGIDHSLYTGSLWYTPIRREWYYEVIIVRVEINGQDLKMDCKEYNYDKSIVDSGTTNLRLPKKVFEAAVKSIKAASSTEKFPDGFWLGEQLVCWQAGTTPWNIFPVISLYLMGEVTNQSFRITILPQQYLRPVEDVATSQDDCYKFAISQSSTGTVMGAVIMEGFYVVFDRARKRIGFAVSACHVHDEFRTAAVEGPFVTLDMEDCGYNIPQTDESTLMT
Readings of koff for the listed binders
Report as a plain number; the unit s⁻¹ is understood.

- 6266.7 Fab (Fab, V domains shown) VH: QVQLVQSGAEVKKPGSSVKVSCKASGGTLSHYGVSWVRQAPGQGLEWMGNIIPGIGTANYAQKFQGRVTITADESTSTAYMELSSLRSEDTAVYYCARSGGTKYGELDVWGQGTMVTVSS VL: EIVMTQSPATLSVSPGERATLSCRASQSVSSNLAWYQQKPGQAPRLLIYGASTRAYGIPARFSGSGSGTEFTLTISSLQSEDAAVYYCQQLILWPPRTFGGGTKVEIK: 0.000333
- 6266.9 Fab (Fab, V domains shown) VH: QVQLVQSGAEVKKPGSSVKVSCKASGGTLKGYGVSWVRQAPGQGLEWMGNIIPGFGTANYAQKFQGRVTITADESTSTAYMELSSLRSEDTAVYYCARGGGTKYGMLDVWGQGTMVTVSS VL: EIVMTQSPATLSVSPGERATLSCRASQSVSSNLAWYQQKPGQAPRLLIYGASKRATGIPARFSGSGSGTEFTLTISSLQSEDFAVYYCQQLILWPPRTFGGGTKVEIK: 0.000305

Moving on to the next binder.
*Q* Consider the binder 6266.5 Fab (Fab, V domains shown) VH: QVQLVQSGAEVKKPGSSVKVSCKASGGTLSHYGVSWVRQAPGQGLEWMGNIIPGIGTANYAQKFQGRVTITADESTSTAYMELSSLRSEDTAVYYCARSGGTQYGMLDVWGQGTMVTVSS VL: EIVMTQSPATLSVSPGERATLSCRASQSVSSNLAWYQQKPGQAPRLLIYGASKRATGIPARFSGSGSGTEFTLTISSLQSEDAAVYYCQQLILWPPRTFGGGTKVEIK and give its measured koff.
*A* 0.000228
